tested on: ACHN; test: NCI tumour cell line growth inhibition, 48 h
The source made the active and inactive calls. Cut-off read from the data, not from the text of the source: active = GI50 up to about 1.1 µM and inactive = higher.
reportedMetric: GI50

Record O=C(O)c1cc(Cl)cc(Cc2cc(Cl)cc(C(=O)O)c2O)c1O ; system ACHN; GI50 = > 100 µM (inactive)

Record CCOC(=O)C(=O)C(/C(=N/N(C)C)C(=O)Nc1ccc(C)cc1C)c1nc2ccccc2nc1O (stereo unspecified) ; system ACHN; GI50 = > 100 µM (inactive)

Record c1ccc(CSc2nc(N3CCOCC3)c3cn[nH]c3n2)cc1 ; system ACHN; GI50 = 17.2 µM (inactive)

Record Cc1ccc(S(=O)(=O)NC2(C=O)CCC(C(C)(C)C)CC2)cc1 (stereo unspecified) ; system ACHN; GI50 = 32.5 µM (inactive)

Record c1ccc(-c2cnc(-c3ccc(-c4ncc(-c5ccccc5)o4)cc3)o2)cc1 ; system ACHN; GI50 = > 100 µM (inactive)

Record c1ccc2c(CC3NCCN3)cccc2c1 ; system ACHN; GI50 = > 100 µM (inactive)

Record c1csc(-c2ccc(-c3ccsc3)s2)c1 ; system ACHN; GI50 = > 100 µM (inactive)

Record N#Cc1nc(-c2ccccc2O)oc1N ; system ACHN; GI50 = > 100 µM (inactive)

Record [N-]=[N+]=NC(c1cn(C2CC(O)C(CO)O2)c(=O)[nH]c1=O)C(Br)Br (stereo unspecified) ; system ACHN; GI50 = > 100 µM (inactive)

Record COc1ccc(/[N+]([O-])=C/c2ccc(OC(=S)S)c(OC)c2)cc1 ; system ACHN; GI50 = 75 µM (inactive)

Record CCCCCCCCCCCCCCCCCCOCC(CCP(=O)(CP(=O)(O)O)Oc1ccccc1)OCCCCCCCCCCCCCCCCCC (stereo unspecified) ; system ACHN; GI50 = > 100 µM (inactive)

---

test system: UACC-257; assay: NCI tumour cell line growth inhibition, 48 h
Calls of active or inactive are those of the source. Rule as the data show it: active = GI50 up to about 1.1 µM and inactive = higher.
Task for the reader: assign each of the following molecules its reported GI50.

Measured GI50 of CC(=O)O[C@@H]1CC[C@@]2(C)C(CC[C@H]3[C@@H]4CC[C@H]([C@H](C)CCc5nc6cc(C)ccc6[nH]5)[C@@]4(C)CC[C@@H]32)C1 (some centres undefined) : 38.7 µM (inactive)

Measured GI50 of Cc1cc2c(c(C(=O)NCCC(=O)N[C@@H](C)C(=O)OCc3ccccc3)c1)Oc1c(cc(C)cc1C(=O)NCCC(=O)N[C@@H](C)C(=O)OCc1ccccc1)S2 : > 100 µM (inactive)

Measured GI50 of CCCC(O)c1cn(-c2cccc(S(=O)(=O)O)c2)nn1 (centres undefined) : > 100 µM (inactive)

Measured GI50 of COc1cc(OC(=O)c2ccccc2)cc2c1C(=O)C=CC2=O : 16.2 µM (inactive)

---

Task for the reader: assign each of the following molecules its reported GI50.
tested on: HCC 2998; assay: NCI tumour cell line growth inhibition, 48 h
The source made the active and inactive calls. Cut-off read from the data, not from the text of the source: active = GI50 up to about 1.1 µM and inactive = higher.

Measured GI50 of Clc1ccc(CCN2CCN(CCCc3ccccc3)CC2)cc1Cl : 17 µM (inactive)

Measured GI50 of COc1cc(-c2ccc(Nc3ccccc3C(=O)O)c(OC)c2)ccc1Nc1ccccc1C(=O)O : 21.7 µM (inactive)

Measured GI50 of COC(=O)C(C(=O)C(=O)Nc1ccc(C(F)(F)F)cc1[N+](=O)[O-])c1csc(-n2nc(-c3ccccc3)cc2-c2ccccc2)n1 (stereo unspecified) : > 100 µM (inactive)

Measured GI50 of CCCCSCCC(N)P(=O)(O)O (stereo unspecified) : > 100 µM (inactive)

Measured GI50 of O=C1c2ccccc2CC12CCC1(CC2)OCCO1 : > 100 µM (inactive)

Measured GI50 of Cc1[nH]c(=O)[nH]c(=O)c1/C=C/C(=O)NC(CO)CC(C)C (stereo unspecified) : 222 µM (inactive)

Measured GI50 of Cc1cc2c(cc1C)NC(=O)C(NC(=O)/C=C/c1ccccc1)C=N2 (stereo unspecified) : 48.6 µM (inactive)

Measured GI50 of NCCCCCC(CCN)SCC1OC(n2cnc3c(N)ncnc32)C(O)C1O (stereo unspecified) : > 1150 µM (inactive)

Measured GI50 of COC(=O)C1(Cc2cccc(C)c2)Cc2c(C)cccc2C1=O (stereo unspecified) : 55.5 µM (inactive)

Measured GI50 of C#CC1(O)CCC2[C@@H]3CCc4cc(Oc5nc(F)nc(-c6c(C)c(C(=O)OCC)n7ccccc67)n5)ccc4C3CC[C@@]21C (stereo partly specified) : > 100 µM (inactive)

Measured GI50 of COC(=O)/C(C#N)=C1\CCC(C(=O)OC)N1C (stereo unspecified) : > 100 µM (inactive)
